# Assay Procedure: Solubility of free base and salt forms
# Type: physicochemical
# Test Conditions: water, thermodynamic from solid, Medium Water; 24 h
Measured Endpoint: solubility at 24 h (µg/mL)
Provide the reading as a plain figure in µg/mL.

Tell me the measured solubility at 24 h of CCC(CC)c1cc(N[C@H]2CC[C@H](N)C2)n2nccc2n1 [Free base I] , please. 5100

====

Some molecules, each annotated with its measured Solubility (24 h).
# Assay Procedure: Solubility of free base and salt forms
# Type: physicochemical
# Test Conditions: Medium 100 mM phosphate; pH Buffer 6.8; 24 h
# Source text: FaSSGF is Fasted State Simulated Gastric Fluid. Solubility is reported in mg/mL.
State just the number; it will be interpreted in mg/mL.

Consider the following illustrative entries.
> print(dat)
                                   molecule  data.value
1  CCC(CC)c1cc(N[C@H]2CC[C@H](N)C2)n2nccc2n1 [Oxalate III]        38.1
2  CCC(CC)c1cc(N[C@H]2CC[C@H](N)C2)n2nccc2n1 [Tosylate III]        2.92

Shifting focus to the molecule that follows.
// query Solubility (24 h) value for entry CCC(CC)c1cc(N[C@H]2CC[C@H](N)C2)n2nccc2n1 [Camsylate II] 42.2

====

# Assay Procedure: pH of the solubility samples
# Assay type: physicochemical
# Test Conditions: Medium FaSSGF; pH Buffer 1.6; 2 h
Measured Endpoint: pH (2 h)
Just the number, please, no unit attached.

> print(dat)
                                   compound  data.value
1  CCC(CC)c1cc(N[C@H]2CC[C@H](N)C2)n2nccc2n1 [Oxalate III]         1.6
2  CCC(CC)c1cc(N[C@H]2CC[C@H](N)C2)n2nccc2n1 [Tosylate III]         1.9
3  CCC(CC)c1cc(N[C@H]2CC[C@H](N)C2)n2nccc2n1 [Camsylate II]         1.7

Please look up its pH (2 h): CCC(CC)c1cc(N[C@H]2CC[C@H](N)C2)n2nccc2n1 [Fumarate III] 1.6

Query (compound): CCC(CC)c1cc(N[C@H]2CC[C@H](N)C2)n2nccc2n1 [Citrate I] ; field requested: pH (2 h) 1.6

====

# Assay Procedure: pH of the solubility samples
# Type: physicochemical
# Test Conditions: Medium 100 mM phosphate; pH Buffer 6.8; 2 h
Recorded measurements of pH (2 h), one per entry
// keep it numeric: no unit symbol after the value

> print(dat)
                                   compound  measured.endpoint  data.value
1  CCC(CC)c1cc(N[C@H]2CC[C@H](N)C2)n2nccc2n1 [Oxalate III]           pH (2 h)         6.7

Any idea what its pH (2 h) is? The compound is CCC(CC)c1cc(N[C@H]2CC[C@H](N)C2)n2nccc2n1 [Tosylate III] 6.8

Item CCC(CC)c1cc(N[C@H]2CC[C@H](N)C2)n2nccc2n1 [Fumarate III] has what recorded pH (2 h)? 7.2

# query: pH (2 h) of entry CCC(CC)c1cc(N[C@H]2CC[C@H](N)C2)n2nccc2n1 [Camsylate II] 7.4

Dear colleague, I am looking for the recorded pH (2 h) of the following compound: CCC(CC)c1cc(N[C@H]2CC[C@H](N)C2)n2nccc2n1 [Citrate I] 6.7

====

List of pH (24 h) values.
# Assay Procedure: pH of the solubility samples
# Assay type: physicochemical
# Test Conditions: Medium 100 mM phosphate; pH Buffer 6.8; 24 h
A bare number is all that is needed in reply.

As a guide, the following entries are already answered.
> print(dat)
                                   compound  data.value
1  CCC(CC)c1cc(N[C@H]2CC[C@H](N)C2)n2nccc2n1 [Fumarate III]         7.3
2  CCC(CC)c1cc(N[C@H]2CC[C@H](N)C2)n2nccc2n1 [Tosylate III]         7.0

Give the measured pH (24 h) of CCC(CC)c1cc(N[C@H]2CC[C@H](N)C2)n2nccc2n1 [Citrate I] . 6.7

Name the reported pH (24 h) value associated with the compound CCC(CC)c1cc(N[C@H]2CC[C@H](N)C2)n2nccc2n1 [Oxalate III] 6.8

Please report the recorded pH (24 h) for CCC(CC)c1cc(N[C@H]2CC[C@H](N)C2)n2nccc2n1 [Camsylate II] . 7.5

====

# Assay Procedure: pH of the solubility samples
# Type: physicochemical
# Test Conditions: Medium FaSSGF; pH Buffer 1.6; 24 h
Measured Endpoint: pH (24 h)
// return a plain number; no unit text

> print(dat)
                                   molecule  data.value
1  CCC(CC)c1cc(N[C@H]2CC[C@H](N)C2)n2nccc2n1 [Camsylate II]         1.7
2  CCC(CC)c1cc(N[C@H]2CC[C@H](N)C2)n2nccc2n1 [Tosylate III]         2.1
3  CCC(CC)c1cc(N[C@H]2CC[C@H](N)C2)n2nccc2n1 [Citrate I]         1.6

Requested read-out: pH (24 h). Entry: CCC(CC)c1cc(N[C@H]2CC[C@H](N)C2)n2nccc2n1 [Oxalate III] 1.5

Which pH (24 h) value belongs to CCC(CC)c1cc(N[C@H]2CC[C@H](N)C2)n2nccc2n1 [Fumarate III] ? 1.7

====

# Assay Procedure: Accelerated aging conditions (AAC; 40° C./75% RH), solids reanalyzed by XRPD
# Type: physicochemical
# Test Conditions: 3 days, solid form by XRPD
Where a name gives a salt, the structure may show the parent alone.
Measured Endpoint: 3 days AAC (XRPD form)

> print(dat)
                                   compound  data.value
1  CCC(CC)c1cc(N[C@H]2CC[C@H](N)C2)n2nccc2n1 [fumarate salt]    Form III
2  CCC(CC)c1cc(N[C@H]2CC[C@H](N)C2)n2nccc2n1 [Fumarate II]    Form III
3  CCC(CC)c1cc(N[C@H]2CC[C@H](N)C2)n2nccc2n1 [Tosylate amorphous]     Form II
4  CCC(CC)c1cc(N[C@H]2CC[C@H](N)C2)n2nccc2n1 [Camsylate II]     Form II
5  CCC(CC)c1cc(N[C@H]2CC[C@H](N)C2)n2nccc2n1 [Fumarate IV]    Form III

Requested field: 3 days AAC (XRPD form). Item: CCC(CC)c1cc(N[C@H]2CC[C@H](N)C2)n2nccc2n1 [Oxalate II] Form II

====

# Assay Procedure: pH of the solubility samples
# Format: physicochemical
# Test Conditions: Medium FaSSGF; pH Buffer 1.6; 30 min
Measured pH (30 min) accompanies every entry in the list below.
The answer should be written as a number, with no unit following it.

Here are 4 molecules together with their reported answers.
> print(dat)
                                   molecule  measured.endpoint  data.value
1  CCC(CC)c1cc(N[C@H]2CC[C@H](N)C2)n2nccc2n1 [Citrate I]        pH (30 min)         4.4
2  CCC(CC)c1cc(N[C@H]2CC[C@H](N)C2)n2nccc2n1 [Oxalate III]        pH (30 min)         1.6
3  CCC(CC)c1cc(N[C@H]2CC[C@H](N)C2)n2nccc2n1 [Fumarate III]        pH (30 min)         4.1
4  CCC(CC)c1cc(N[C@H]2CC[C@H](N)C2)n2nccc2n1 [Tosylate III]        pH (30 min)         1.0

I'd like to know its pH (30 min). The molecule in question is CCC(CC)c1cc(N[C@H]2CC[C@H](N)C2)n2nccc2n1 [Camsylate II] 1.6

====

Items are presented alongside their recorded pH (30 min).
# Assay Procedure: pH of the solubility samples
# Format: physicochemical
# Test Conditions: Medium 100 mM phosphate; pH Buffer 6.8; 30 min
Note: the reply should be a number with no unit written.

The cases that follow already have their pH (30 min) on record.
> print(dat)
                                   compound  measured.endpoint  data.value
1  CCC(CC)c1cc(N[C@H]2CC[C@H](N)C2)n2nccc2n1 [Oxalate III]        pH (30 min)         2.1
2  CCC(CC)c1cc(N[C@H]2CC[C@H](N)C2)n2nccc2n1 [Tosylate III]        pH (30 min)         2.7

Look at this compound and give its reported pH (30 min). CCC(CC)c1cc(N[C@H]2CC[C@H](N)C2)n2nccc2n1 [Fumarate III] 4.5

Looking for the measured pH (30 min) of CCC(CC)c1cc(N[C@H]2CC[C@H](N)C2)n2nccc2n1 [Camsylate II] , can you help? 4.1

What does the record list as pH (30 min) for CCC(CC)c1cc(N[C@H]2CC[C@H](N)C2)n2nccc2n1 [Citrate I] ? 4.5

FYI, the data here is from patent US20250059193A1.
